- TESTED SYSTEM: T1, serum purified human Complement Factor D (human, UniProt P00746 26-253)
- T1 construct: Serum purified protein flowed over the captured antibodies; also called CFD; human CFD
- T1 sequence (P00746 26-253): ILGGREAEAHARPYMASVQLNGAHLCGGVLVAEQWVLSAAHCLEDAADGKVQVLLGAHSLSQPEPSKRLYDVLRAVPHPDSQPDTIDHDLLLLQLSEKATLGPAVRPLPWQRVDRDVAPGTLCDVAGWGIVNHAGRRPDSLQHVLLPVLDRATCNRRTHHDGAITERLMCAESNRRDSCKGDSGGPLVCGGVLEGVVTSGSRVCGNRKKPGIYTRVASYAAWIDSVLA
- MEASUREMENT DESCRIPTION: SPR Biacore, antibody on protein A chip, single cycle kinetics, 37 C;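 note: antibodies captured on the protein A surface to roughly 70 RU in HBS-EP+ buffer, with rate and affinity constants fitted using BIAevaluation software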
ASSAY METRIC: koff (s⁻¹)
Return type: number; implicit unit s⁻¹.

[
  {
    "BINDER": "28S31S54V59D / 101V (antibody, V domains shown, KCD119 TAF variant; full antibody captured on protein A) VH: EVQLVESGGGLVQPGGSLRLSCAASGYSFTSYYMNWVRQAPGKGLEWIGDINPVTGDTDYNADFKRRFTFSLDTSKSTAYLQMNSLRAEDTAVYYCTREGPSFAYWGQGTLVTVSS VL: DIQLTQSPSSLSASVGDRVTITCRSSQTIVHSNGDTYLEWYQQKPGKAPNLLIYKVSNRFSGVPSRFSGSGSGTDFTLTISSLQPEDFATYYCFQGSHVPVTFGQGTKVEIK",
    "UNITS SYMBOL": "s⁻¹",
    "koff": 0.000918
  },
  {
    "BINDER": "31S34I54I59D84S / 54G101V (antibody, V domains shown, KCD119 TAF variant; full antibody captured on protein A; also called 31S34I54I59D845 / 54G101V; 3I534I54I59D84S / 54G101V) VH: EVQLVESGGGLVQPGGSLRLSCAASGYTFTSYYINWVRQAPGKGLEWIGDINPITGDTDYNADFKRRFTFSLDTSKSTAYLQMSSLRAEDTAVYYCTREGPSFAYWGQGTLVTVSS VL: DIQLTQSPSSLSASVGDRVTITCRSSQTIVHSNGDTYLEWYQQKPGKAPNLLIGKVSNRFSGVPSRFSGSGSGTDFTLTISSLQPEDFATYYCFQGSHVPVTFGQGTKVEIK",
    "UNITS SYMBOL": "s⁻¹",
    "koff": "7.36e-05"
  },
  {
    "BINDER": "54V59D / 54R101V (antibody, V domains shown, KCD119 TAF variant) VH: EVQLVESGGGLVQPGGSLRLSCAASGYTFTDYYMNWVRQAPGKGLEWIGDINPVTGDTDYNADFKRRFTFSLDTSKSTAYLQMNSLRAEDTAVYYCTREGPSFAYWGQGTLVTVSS VL: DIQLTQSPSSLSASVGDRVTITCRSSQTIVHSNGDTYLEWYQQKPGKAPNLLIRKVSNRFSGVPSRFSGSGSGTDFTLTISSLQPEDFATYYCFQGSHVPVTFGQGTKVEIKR",
    "UNITS SYMBOL": "s⁻¹",
    "koff": 0.00037
  },
  {
    "BINDER": "54I59D / 54S60W101V (antibody, V domains shown, Light label printed 54560W101V, read as 54S60W101V; also called 54I59D / 54560W101V) VH: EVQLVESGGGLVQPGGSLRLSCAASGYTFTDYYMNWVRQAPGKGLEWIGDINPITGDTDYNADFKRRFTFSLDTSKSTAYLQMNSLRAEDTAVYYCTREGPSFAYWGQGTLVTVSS VL: DIQLTQSPSSLSASVGDRVTITCRSSQTIVHSNGDTYLEWYQQKPGKAPNLLISKVSNRWSGVPSRFSGSGSGTDFTLTISSLQPEDFATYYCFQGSHVPVTFGQGTKVEIK",
    "UNITS SYMBOL": "s⁻¹",
    "koff": 0.000148
  },
  {
    "BINDER": "54V59D / 34D60W101V (antibody, V domains shown, KCD119 TAF variant; full antibody captured on protein A) VH: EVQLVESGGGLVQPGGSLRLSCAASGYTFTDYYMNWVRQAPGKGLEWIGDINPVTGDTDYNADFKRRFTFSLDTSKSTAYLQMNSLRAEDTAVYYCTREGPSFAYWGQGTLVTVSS VL: DIQLTQSPSSLSASVGDRVTITCRSSQTIVHSNDDTYLEWYQQKPGKAPNLLIYKVSNRWSGVPSRFSGSGSGTDFTLTISSLQPEDFATYYCFQGSHVPVTFGQGTKVEIK",
    "UNITS SYMBOL": "s⁻¹",
    "koff": 0.00083
  },
  {
    "BINDER": "54I59D / 50I60W101V (antibody, V domains shown, KCD119 TAF variant; full antibody captured on protein A) VH: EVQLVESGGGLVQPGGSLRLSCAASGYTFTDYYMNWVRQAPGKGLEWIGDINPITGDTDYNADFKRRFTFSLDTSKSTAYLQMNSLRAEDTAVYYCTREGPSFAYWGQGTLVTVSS VL: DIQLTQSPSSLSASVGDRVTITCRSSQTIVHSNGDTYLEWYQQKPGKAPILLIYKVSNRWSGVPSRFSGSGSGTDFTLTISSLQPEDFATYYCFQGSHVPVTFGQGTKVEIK",
    "UNITS SYMBOL": "s⁻¹",
    "koff": 0.000329
  }
]

Turning now to a further record.
Need koff, item 28H31S54V59D / 101V (antibody, V domains shown, KCD119 TAF variant; full antibody captured on protein A) VH: EVQLVESGGGLVQPGGSLRLSCAASGYHFTSYYMNWVRQAPGKGLEWIGDINPVTGDTDYNADFKRRFTFSLDTSKSTAYLQMNSLRAEDTAVYYCTREGPSFAYWGQGTLVTVSS VL: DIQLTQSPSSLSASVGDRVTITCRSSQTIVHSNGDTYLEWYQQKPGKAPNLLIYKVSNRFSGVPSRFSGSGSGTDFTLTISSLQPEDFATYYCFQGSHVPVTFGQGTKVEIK
0.000443
